- assayOverview: Crystallisation tests of salts with pharmaceutically acceptable bases
- Format: physicochemical
measurementName: Hygroscopicity / deliquescence of the salt

> print(dat)
                                   compound  experimentalresult
1  C[N+](C)(C)CCO.O=C([O-])c1cc(C2CC2)ccc1Nc1cnc(-c2c(F)cccc2F)nc1 [salt from choline]         hygroscopic
2  O=C([O-])c1cc(C2CC2)ccc1Nc1cnc(-c2c(F)cccc2F)nc1.[K+] [salt from potassium methoxide]         hygroscopic
3  N=C(N)NCCCC(N)C(=O)O.O=C(O)c1cc(C2CC2)ccc1Nc1cnc(-c2c(F)cccc2F)nc1 [salt from L-arginine]         hygroscopic

* * *

- assayOverview: Crystallisation tests of salts with pharmaceutically acceptable bases
- Assay type: physicochemical
- experimentalConditions: salt crystallisation tests
measurementName: Solid form obtained

> print(dat)
                                   molecule  experimentalresult
1  C[N+](C)(C)CCO.O=C([O-])c1cc(C2CC2)ccc1Nc1cnc(-c2c(F)cccc2F)nc1 [salt from choline]         crystalline
2  O=C([O-])c1cc(C2CC2)ccc1Nc1cnc(-c2c(F)cccc2F)nc1.[K+] [salt from potassium methoxide]         crystalline
3  N=C(N)NCCCC(N)C(=O)O.O=C(O)c1cc(C2CC2)ccc1Nc1cnc(-c2c(F)cccc2F)nc1 [salt from L-arginine]         crystalline
